Assay: protease stability score; higher = more stable; yeast display proteolysis, trypsin and chymotrypsin;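 note: relative to predicted unfolded state with 0 unfolded-like and 1 meaning tenfold more protease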
Readout name: protease stability score

[[record]]
ordered_residues = "DHVEEVVRQMVSHILRDYITGDEKSYASLMDPNMRLHIGDKDSIGREEVLRLIREHTRHLGIKHFHLHDVRIRIQGEYVEIKIDVHLEFNGRKFRVIIHLEMHKVNGRWRLHEETIEIE"
observed_value = 2.61

[[record]]
ordered_residues = "SESEDQAHKFSEEWIKAFETGDEEHMNRLVDPNVRIEVGDKEHHGRHVYLEILKRLGANHVRIHIEDIEVQGEKLIIHGKIIITVGDKVIEIRTIIIVTKIDGRWRIKDIIFH"
observed_value = 1.39

[[record]]
ordered_residues = "DEEKKVAMELAILLFHLWLTGDEETERRLADPDTRMDVDGKDIIGREELSKVWERILKEMRFDRWEVDRVDVVNGQVHLHGHIRGKYNGKEETREIEITINIVNGRLKSVHFNLR"
observed_value = 1.87

[[record]]
ordered_residues = "DEEDEVLKLAFEFIRHQLETGDEDTLNRYVDPHARFEVNGRDIHGRDRYNRFLEELYRKHGVEIKDVLLQDNKSQGDKIRIDIKINIDVNGREVNFDVHIIALKINGKWIHKRQIDI"
observed_value = 0.542

[[record]]
ordered_residues = "DEDEHEMRELIDKWLHNLKTGDEKRTEELMDPHAKIRTVINGVEYRFHGREMLHYLVQILGVDHMEIKHVEIRVQGNKVENHVDLTLIVGDKHVRTRMILVAEKIDGRWEVKSLFFNIE"
observed_value = 1.96

[[record]]
ordered_residues = "SEEEELFRKLVNLFLRDVLTGDEESLIELMDPDVRVDINGRKNVGWEEVANTWKQMRIRDFEYREVEYYNGQARIHGVRDGNINGVDERTEIEISMSIVDGRLKHVRVHVR"
observed_value = 2.09

[[record]]
ordered_residues = "DELEEDSKKFFEILIKAYWTGDFTTLSRMMDPHVRNDINGRDIHGMEELSRVETEISRKYGADHFDFHIKDFKVQGEKLTVHGRIIIRVNGKTFEHDEIFYLIKIDGKWTWESVEVL"
observed_value = 0.989

[[record]]
ordered_residues = "DEKKAKEAAHRLLEAMVTGDPRKLNENADEDVQVEYGDKSYTGREKLNEWAHEFQKRVDHVRIESIHQRGDTATVKVRVEHNGETDTFVLIVEAHNGRAKRIRQETR"
observed_value = 1.1

[[record]]
ordered_residues = "DTEEKLARDIVRIVSELIFTGNEQDLKRLHDPRVRLEVLFENHYLEFHGWEDYLEWLEEWRNHMRMKEIHVHTLQVYGNKARDEVHTVVHIGDKRIETRMHFIVVVINGRIKYISVHIE"
observed_value = 1.9

[[record]]
ordered_residues = "DEDKENAEEAIRRLMEMILTGDEDQIRHMIDPHVRVIINGRDHHGWEELLRFWKEMRIHDVKVHDIKIINGRVNSDTKIVTEIGDFRIELEAHFIFHKFDGRWRVDSVDLR"
observed_value = 1.18

[[record]]
ordered_residues = "DELEEELDQFQKLMVESSKTGDEDTEKKLADPNVRVDINGVILHGMENFVEFMRHWRIKHIHNKEVRFINGRAHVTGDVEGHVNGRDTRTRVTLIIIKINGRWFIEEVKFD"
observed_value = 1.37

[[record]]
ordered_residues = "REDEKFRDYATHWLEKYVRTGDENLMEELIDPDVRVHVNGQENHGMDEMRKWMLELRIEHIIIRRIEIHVYDGVIEINIDSETRVNFNGRKIRTKVHIHTETRKIDGRWSISHLELRFK"
observed_value = 1.07

[[record]]
ordered_residues = "DEDERISRNFVRLILHAIRTGNENMIKTMADPNDRLEVGDKEFHGRELALEFWFRFDVLKEFHIRSVHSQGDKLHIEGESTWVIGDKEIRTTEHRLIIKIDGQWVLTEIKME"
observed_value = 1.62

[[record]]
ordered_residues = "DEWREHMEKLADDFSHAMLTGNEESMDKFLDPHTRSIVNGVERHGREAFRIWINQIDHIRDVEFRHVDTQGNKIRSHTRFHGEVNGRRYIVEIEVILHVIDGRVKSVEIRNL"
observed_value = 1.38

[[record]]
ordered_residues = "DEESKESHDIMRILLHIFRTGDEHKLKEMADPNTLFHIGDKEFHGREEFVHFLREVFEKIKNIKHRITDIKDVGDKIHVEVEEKVNGRHRHVELIWLVVDGKIQWYEIRIR"
observed_value = 1.23

[[record]]
ordered_residues = "SEREKHWRDWVENVVEYHTHLLETGDEEEWKRFFRRLADPHVRMIVGDKVTHGREDAMRLFDELIKLLGVNHVHFRRVEIIGNKVNIDVELRQGNKFINLELILIVIDGKLENVERRVH"
observed_value = 1.14

[[record]]
ordered_residues = "TEDEEKSHEFVHRLSHSVMTGDWKDIKRLADPNMKSRVNGREIHGWDKTKRMLDEEEEQLGVSRFEFDLKRVDTQGDKLFIDMRMKVNGRTLEVTYHVEKVNGRWLVTEFHIL"
observed_value = 0.555

[[record]]
ordered_residues = "DERERLLLEWARKFMENLITGNEELLKEMHDPHYRSHIGDKDLVGREVHHEFWEKHFRHWRIEKFDVRDYHTQGDKARLVVRIVIDVDGRRIDTEIHIHYDIIDGQLRLVTLQYE"
observed_value = 1.5

[[record]]
ordered_residues = "SEKEKLYKDMFRLWAENHRTGNEKKLLEMADPNAQFIFNGREFHGRELIKEEIDEWINRIKNVRVDIHRVEIQGEKIHVITRLHINGQDLETKVELIIVDGQLHLERIHID"
observed_value = 0.759

[[record]]
ordered_residues = "DEHDKETKEMLERFLEATETGNEKHSEELFDPRTRMEFDGVEIHGRETITKILTELWERADHIQFVLHDLRLVDGRVELDMRIRLHYDGQEYRRRSKVLLWKIDGRWVIRSERYE"
observed_value = 1.99

[[record]]
ordered_residues = "SEEEELIEYILELWMHAYVTGDEDVVHEMADPNVRIQVGDKKFIGRKTFSETIHELLNRVDHFRLHIRDYKVINGKAIMHIELHYRVNGKDIHHHVDIDVHKINGRWIVKSIHYR"
observed_value = 1.83

[[record]]
ordered_residues = "DEDRKHMEQAITLLKRLWETGNEEDILKNLDPNVRFEVGEWVDHGRRSIEIFRERFKNLRVHDTRHKDRDVVDGRAHLHGEYNGEINGRLINTHVILVIEKVNGRWYFESIHIH"
observed_value = 1.19

